Reported values of pIC50 for individual entries
- Test system: Platelet
- EXPERIMENT: Inhibition of arachidonic acid-induced platelet aggregation in rabbit platelet rich plasma by Born's turbidimetric method
- Type: functional
- SETUP_CONDITIONS: Oryctolagus cuniculus
Value format note: pIC50 is -log10 of concentration (mol/L); just state the number.

The cases that follow already have their pIC50 on record.
COMPOUND: CCCCCC1SC(=O)c2ccccc21 (racemic)
TESTED_TARGET: Platelet
pIC50: 3.68

COMPOUND: CC1=NN(c2ccccc2)C(=O)C1
TESTED_TARGET: Platelet
pIC50: 3.60

COMPOUND: CCCCC1OC(=O)c2ccccc21 (racemic) [RAC-3-N-BUTYLPHTHALIDE]
TESTED_TARGET: Platelet
pIC50: 3.32

COMPOUND: CCCCC1SC(=O)c2ccccc21 (racemic)
TESTED_TARGET: Platelet
pIC50: 3.46

Sure, the documented pIC50 for CCCC1SC(=O)c2ccccc21 (racemic) is 3.40

Record CCCCCCC1SC(=O)c2ccccc21 (racemic) , field pIC50: 3.08

Sample CC(=O)Oc1ccccc1C(=O)O ; pIC50 observed: 3.82

* * *

- Test system: Plasma
- EXPERIMENT: Anticoagulant activity in rabbit plasma assessed as length of activated partial thromboplastin time
- Assay type: functional, cell-free
- SETUP_CONDITIONS: Oryctolagus cuniculus
The source made the active and inactive calls. No cut-off for these calls is given here.
READOUT_TYPE: Activity

MOLECULE: CC1=NN(c2ccccc2)C(=O)C1 [EDARAVONE]
MEASUREMENT: inactive

MOLECULE: CC(=O)Oc1ccccc1C(=O)O [ASPIRIN]
MEASUREMENT: inactive

MOLECULE: CCCCC1OC(=O)c2ccccc21 (racemic) [RAC-3-N-BUTYLPHTHALIDE]
MEASUREMENT: inactive

MOLECULE: CCCCCC1SC(=O)c2ccccc21 (racemic)
MEASUREMENT: inactive
